- target_or_system: Ribosomal protein S6 kinase alpha-3 (Homo sapiens)
- measurement_notes: Inhibition of RSK2-mediated CREB phosphorylation in HeLa cells expressing luciferase reporter gene
- Assay type: cell-based
Task for the reader: assign each of the following molecules its reported pIC50.
Reminder that pIC50 means the negative base-10 logarithm of the concentration expressed in mol/L.

What measured pIC50 goes with CC1CNC(=O)c2cc3ccc(C(=O)Nc4cccnc4)cc3n2C1 (centres undefined) ? 5.31

What measured pIC50 goes with O=C(Nc1ccccn1)c1ccc2cc3n(c2c1)CCCNC3=O ? 5.58

What measured pIC50 goes with CC(C)n1ncc2cc(NC(=O)c3ccc4cc5n(c4c3)CCCNC5=O)cnc21 ? 6.08

What measured pIC50 goes with O=C(Nc1cccnc1)c1ccc2cc3n(c2c1)CCCNC3=O ? 5.71

What measured pIC50 goes with O=C(Nc1ncc[nH]1)c1ccc2cc3n(c2c1)CCCNC3=O ? 6.54

What measured pIC50 goes with O=C(Nc1cnc2ccccc2c1)c1ccc2cc3n(c2c1)CCCNC3=O ? 6.47

What measured pIC50 goes with CC1CCNC(=O)c2cc3ccc(C(=O)Nc4cccnc4)cc3n21 (centres undefined) ? 6.05

What measured pIC50 goes with CC1CNC(=O)c2cc3ccc(C(=O)Nc4cccnc4)cc3n21 (centres undefined) ? 5.79

What measured pIC50 goes with O=C(Nc1ccncc1)c1ccc2cc3n(c2c1)CCCNC3=O ? 6.21

What measured pIC50 goes with CC1(C)CNC(=O)c2cc3ccc(C(=O)Nc4cccnc4)cc3n21 ? 5.81

What measured pIC50 goes with O=C(Nc1ccc2ccccc2n1)c1ccc2cc3n(c2c1)CCCNC3=O ? 5.95

What measured pIC50 goes with NC(=O)c1ccccc1NC(=O)c1ccc2cc3n(c2c1)CCCNC3=O ? 6.25

What measured pIC50 goes with C[C@@H]1NC(=O)c2cc3ccc(C(=O)Nc4cccnc4)cc3n2[C@@H]1C (relative stereo) ? 6.08

What measured pIC50 goes with O=C(Nc1ccccc1)c1ccc2cc3n(c2c1)CCCNC3=O ? 5.71

###

- target_or_system: Ribosomal protein S6 kinase alpha-3 (Homo sapiens, UniProt P51812)
- Sequence (P51812 whole entry): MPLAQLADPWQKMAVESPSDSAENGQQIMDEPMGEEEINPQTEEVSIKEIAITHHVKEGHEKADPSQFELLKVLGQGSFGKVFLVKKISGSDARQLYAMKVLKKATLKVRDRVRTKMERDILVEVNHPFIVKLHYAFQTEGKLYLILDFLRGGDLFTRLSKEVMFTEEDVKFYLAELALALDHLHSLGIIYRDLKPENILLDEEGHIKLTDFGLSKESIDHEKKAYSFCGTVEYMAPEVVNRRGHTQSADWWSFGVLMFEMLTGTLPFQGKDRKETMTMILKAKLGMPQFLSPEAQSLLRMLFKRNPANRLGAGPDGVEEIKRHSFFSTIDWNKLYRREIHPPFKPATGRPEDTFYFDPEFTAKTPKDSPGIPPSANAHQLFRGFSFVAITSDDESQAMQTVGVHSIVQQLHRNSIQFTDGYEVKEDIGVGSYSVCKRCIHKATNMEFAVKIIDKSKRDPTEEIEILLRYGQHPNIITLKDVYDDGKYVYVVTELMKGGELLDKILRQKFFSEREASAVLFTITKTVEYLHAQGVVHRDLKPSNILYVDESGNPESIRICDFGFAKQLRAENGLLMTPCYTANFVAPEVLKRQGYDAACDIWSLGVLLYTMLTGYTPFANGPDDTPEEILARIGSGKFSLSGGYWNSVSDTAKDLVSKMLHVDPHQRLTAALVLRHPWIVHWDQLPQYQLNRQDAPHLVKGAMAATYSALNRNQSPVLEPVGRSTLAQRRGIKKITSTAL
- measurement_notes: Inhibition of RSK2 phosphorylation by luminescence assay
Task for the reader: assign each of the following compounds its reported IC50.
Just the number please, in nM, no unit attached.

What reported IC50 corresponds to O=C(Nc1nccs1)c1ccc2cc3n(c2c1)CCCNC3=O on Ribosomal protein S6 kinase alpha-3 (Homo sapiens, UniProt P51812)? 2200

What reported IC50 corresponds to NCC1Cn2c(cc3ccc(C(=O)Nc4cccnc4)cc32)C(=O)N1 (stereo not given) on Ribosomal protein S6 kinase alpha-3 (Homo sapiens, UniProt P51812)? 970

What reported IC50 corresponds to O=C(Nc1ccc(Cl)cc1)c1ccc2cc3n(c2c1)CCCNC3=O on Ribosomal protein S6 kinase alpha-3 (Homo sapiens, UniProt P51812)? 180

What reported IC50 corresponds to O=C(Nc1cccnc1)c1ccc2cc3n(c2c1)CCCNC3=O on Ribosomal protein S6 kinase alpha-3 (Homo sapiens, UniProt P51812)? 240

What reported IC50 corresponds to O=C(Nc1ccncc1)c1ccc2cc3n(c2c1)CCCNC3=O on Ribosomal protein S6 kinase alpha-3 (Homo sapiens, UniProt P51812)? 34

What reported IC50 corresponds to O=C(Nc1ccc2ccccc2n1)c1ccc2cc3n(c2c1)CCCNC3=O on Ribosomal protein S6 kinase alpha-3 (Homo sapiens, UniProt P51812)? 68

What reported IC50 corresponds to C[C@@H]1[C@@H](C)NC(=O)c2cc3ccc(C(=O)Nc4cccnc4)cc3n21 (relative stereo) on Ribosomal protein S6 kinase alpha-3 (Homo sapiens, UniProt P51812)? 871

What reported IC50 corresponds to C[C@@H]1NC(=O)c2cc3ccc(C(=O)Nc4cccnc4)cc3n2[C@@H]1C (relative stereo) on Ribosomal protein S6 kinase alpha-3 (Homo sapiens, UniProt P51812)? 45

What reported IC50 corresponds to CC1Cn2c(cc3ccc(C(=O)Nc4cccnc4)cc32)C(=O)N1 (stereo not given) on Ribosomal protein S6 kinase alpha-3 (Homo sapiens, UniProt P51812)? 350

What reported IC50 corresponds to CC1CCn2c(cc3ccc(C(=O)Nc4cccnc4)cc32)C(=O)N1 (stereo not given) on Ribosomal protein S6 kinase alpha-3 (Homo sapiens, UniProt P51812)? 2500

What reported IC50 corresponds to NCC1CNC(=O)c2cc3ccc(C(=O)Nc4cccnc4)cc3n2C1 (stereo not given) on Ribosomal protein S6 kinase alpha-3 (Homo sapiens, UniProt P51812)? 1800

What reported IC50 corresponds to O=C(Nc1cccnc1)c1ccc2cc3n(c2c1)CCNC3=O on Ribosomal protein S6 kinase alpha-3 (Homo sapiens, UniProt P51812)? 730

What reported IC50 corresponds to CC1CNC(=O)c2cc3ccc(C(=O)Nc4cccnc4)cc3n21 (stereo not given) on Ribosomal protein S6 kinase alpha-3 (Homo sapiens, UniProt P51812)? 170

What reported IC50 corresponds to CC1(C)CNC(=O)c2cc3ccc(C(=O)Nc4cccnc4)cc3n21 on Ribosomal protein S6 kinase alpha-3 (Homo sapiens, UniProt P51812)? 210

What reported IC50 corresponds to O=C(Nc1cccnc1)c1ccc2cc3n(c2c1)CC1(CC1)CNC3=O on Ribosomal protein S6 kinase alpha-3 (Homo sapiens, UniProt P51812)? 410

What reported IC50 corresponds to O=C(Nc1nc2ccccc2[nH]1)c1ccc2cc3n(c2c1)CCCNC3=O on Ribosomal protein S6 kinase alpha-3 (Homo sapiens, UniProt P51812)? 4

What reported IC50 corresponds to NC(=O)c1ccc2cc3n(c2c1)CCCNC3=O on Ribosomal protein S6 kinase alpha-3 (Homo sapiens, UniProt P51812)? 9100

What reported IC50 corresponds to CC1CNC(=O)c2cc3ccc(C(=O)Nc4cccnc4)cc3n2C1 (stereo not given) on Ribosomal protein S6 kinase alpha-3 (Homo sapiens, UniProt P51812)? 1200

What reported IC50 corresponds to C[C@@H]1CNC(=O)c2cc3ccc(C(=O)Nc4cccnc4)cc3n2[C@@H]1C (relative stereo) on Ribosomal protein S6 kinase alpha-3 (Homo sapiens, UniProt P51812)? 240

###

Task for the reader: assign each of the following compounds its reported IC50.
- target_or_system: Ribosomal protein S6 kinase alpha-3 (Homo sapiens)
- measurement_notes: Inhibition of RSK2 phosphorylation by luminescence assay

What measured IC50 goes with Cn1nccc1NC(=O)c1ccc2cc3n(c2c1)CCCNC3=O ? > 1 µM

What measured IC50 goes with O=C(Nc1nc2ccccc2s1)c1ccc2cc3n(c2c1)CCCNC3=O ? > 10 µM

What measured IC50 goes with O=C(Nc1cccnc1)c1ccc2cc3n(c2c1)CC1(CCOCC1)CNC3=O ? > 10 µM

What measured IC50 goes with O=C(NC1CCCCC1)c1ccc2cc3n(c2c1)CCCNC3=O ? > 10 µM

What measured IC50 goes with O=C(NCc1cccnc1)c1ccc2cc3n(c2c1)CCCNC3=O ? > 10 µM

What measured IC50 goes with O=C(Nc1ncccn1)c1ccc2cc3n(c2c1)CCCNC3=O ? > 10 µM
